B1: LINE1-full (parent)
chain: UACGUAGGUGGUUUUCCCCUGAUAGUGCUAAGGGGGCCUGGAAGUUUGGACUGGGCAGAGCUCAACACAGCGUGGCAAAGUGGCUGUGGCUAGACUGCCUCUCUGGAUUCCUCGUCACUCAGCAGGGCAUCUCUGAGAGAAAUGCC

Variants of: B1
Experiment: self-cleavage, relative activity (ratio to wild type); higher = more cleavage; in vitro, sequencing; the parent is a self-cleaving ribozyme
Record form. Attribute: self-cleavage. Fill in for each entry.
# print the numeric value only

Inquiry: Item U13C C61U has what recorded self-cleavage?
Reply text: 0

Inquiry: Item A69U G80U has what recorded self-cleavage?
Reply text: 0.03

Inquiry: Item U47C A142C has what recorded self-cleavage?
Reply text: 1.3

Inquiry: Item A43C U87A has what recorded self-cleavage?
Reply text: 0.09
